- Assay info: Solubility of K883
- Assay type: physicochemical
- Reported conditions: aqueous with cosolvent or surfactant or cyclodextrin; PBS:PEG 300:propylene glycol:polysorbate 80 at 50:40:5:5; preliminary evidence; read-out: solubility in excipient mixture
Quantity measured: solubility

**Query** Give its solubility value. Item: NC(=O)N(CCC(=O)O)NC(=O)[C@H](CO)NC(=O)[C@H](CO)NC(=O)N(N)Cc1ccccc1 [K883]
**Result** > 5000 µg/mL

----------
- Assay info: in vivo
- Reported conditions: male, Sprague-Dawley, rat, iv, 1 mg/kg, AUC∞, Mean
Quantity measured: AUC(0-inf) (µg·h/mL)
Numeric answer only, unit µg·h/mL assumed.

**Query** Give its AUC(0-inf) value. Item: NC(=O)N(CCC(=O)O)NC(=O)[C@H](CO)NC(=O)[C@H](CO)NC(=O)N(N)Cc1ccccc1
**Result** 3.78

----------
- Assay info: Pharmacokinetics after intravenous administration in rats (LC-MS)
- Reported conditions: male, Sprague-Dawley, rat, in vivo, iv, 1 mg/kg
Quantity measured: AUC(0-inf)

**Query** Give its AUC(0-inf) value. Item: NC(=O)N(CCC(=O)O)NC(=O)[C@H](CO)NC(=O)[C@H](CO)NC(=O)N(N)Cc1ccccc1
**Result** 3.78 µg·h/mL

----------
- Assay info: Pharmacokinetics after intravenous administration in rats (LC-MS)
- Reported conditions: male, Sprague-Dawley, rat, in vivo, iv, 1 mg/kg, Plasma concentration, individual rats, IV 1 mg/kg; 6.0 hr
Quantity measured: concentration at 6 hr (ng/mL)
Numeric answer only, unit ng/mL assumed.

**Query** Give its concentration at 6 hr value. Item: NC(=O)N(CCC(=O)O)NC(=O)[C@H](CO)NC(=O)[C@H](CO)NC(=O)N(N)Cc1ccccc1
**Result** 6.49

----------
- Assay info: Pharmacokinetics after intravenous administration in rats (LC-MS)
- Reported conditions: male, Sprague-Dawley, rat, in vivo, iv, 1 mg/kg, Plasma concentration, Mean, IV 1 mg/kg; 6.0 hr; mean of 3 rats
Quantity measured: concentration at 6 hr (ng/mL)
Numeric answer only, unit ng/mL assumed.

**Query** Give its concentration at 6 hr value. Item: NC(=O)N(CCC(=O)O)NC(=O)[C@H](CO)NC(=O)[C@H](CO)NC(=O)N(N)Cc1ccccc1
**Result** 5.1

----------
- Assay info: in vivo
- Reported conditions: male, Sprague-Dawley, rat, serum half-life
Quantity measured: half-life

**Query** Give its half-life value. Item: NC(=O)N(CCC(=O)O)NC(=O)[C@H](CO)NC(=O)[C@H](CO)NC(=O)N(N)Cc1ccccc1 [K883]
**Result** > 1 h

----------
- Assay info: Solubility of K883
- Type: physicochemical
- Reported conditions: water; read-out: solubility in water
Quantity measured: solubility

**Query** Give its solubility value. Item: NC(=O)N(CCC(=O)O)NC(=O)[C@H](CO)NC(=O)[C@H](CO)NC(=O)N(N)Cc1ccccc1
**Result** < 100 µg/mL

----------
- Assay info: Pharmacokinetics after intravenous administration in rats (LC-MS)
- Reported conditions: male, Sprague-Dawley, rat, in vivo, iv, 1 mg/kg, Plasma concentration, individual rats, IV 1 mg/kg; 1.0 hr
Quantity measured: concentration at 1 hr (ng/mL)
Numeric answer only, unit ng/mL assumed.

**Query** Give its concentration at 1 hr value. Item: NC(=O)N(CCC(=O)O)NC(=O)[C@H](CO)NC(=O)[C@H](CO)NC(=O)N(N)Cc1ccccc1
**Result** 814

Origin of measurements: patent US11471507B2
